# subjectOfTest: Ras-related C3 botulinum toxin substrate 1 (Mus musculus)
# method: activated mutant Rac1 GTP binding inhibitors, SAR follow-up, biochemical, additional analogs, multiplex bead flow cytometry (AID 2039)

| structureSmilesString | Ki (µM) |
| --- | --- |
| O=C1Nc2c(Br)cccc2C1=C1Nc2ccccc2C1=O | 2.51 |
| O=C1NC(=S)N/C1=C1\C(=O)Nc2ccccc21 | 0.64 |
| O=C1N=c2c(F)cccc2=C1c1[nH]c2ccccc2c1NO | 2.87 |
| O=C1N=c2ccc(Br)cc2=C1c1[nH]c2ccccc2c1NO | 2.98 |
| O=C1NC(=O)/C(=C2/C(=O)Nc3ccccc32)N1 | 1.06 |
| O=C1Nc2ccc(Br)cc2C1=C1Nc2ccccc2C1=O | 1.11 |

Origin of the recorded values: BindingDB's records for doi:10.7270/Q20V8B7J
